# Tested system: Replicase polyprotein 1ab (Severe acute respiratory syndrome coronavirus 2, UniProt P0DTD1)
Measurement label: IC50 (µM)

>>> observed_value("CC(C)(C)OC(=O)Nc1cccn([C@@H](CC2CCCCC2)C(=O)N[C@@H](C[C@@H]2CCNC2=O)C(=O)C(=O)NCc2ccccc2)c1=O")
2.39

====

# Tested system: Phospholipase A2, membrane associated (Homo sapiens, UniProt P14555)
# Sequence (P14555 whole entry): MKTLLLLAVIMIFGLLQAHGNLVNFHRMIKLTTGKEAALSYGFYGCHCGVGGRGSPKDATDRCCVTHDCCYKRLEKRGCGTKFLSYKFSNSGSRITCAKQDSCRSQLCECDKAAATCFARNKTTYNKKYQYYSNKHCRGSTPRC
# Run description: Inhibition of human group IIA phospholipase A2 incubated for 10 to 20 mins cells by radiometric assay
pIC50: −log10 of the molar value.
Measurement label: pIC50

>>> observed_value("Cc1c(C(=O)C(N)=O)c2c(OCC(=O)O)cccn2c1Cc1ccccc1-c1ccccc1")
8.00
